Origin of values: patent US20260258115A1

Biological target: RSV postfusion F (postF), F deltaFP (respiratory syncytial virus, UniProt P03420 26-513)
Test: BLI, IgG on sensor, 100 nM antigen
pKd: −log10 of the molar value.

[
  {
    "binder": "ADI-41381 (antibody, V domains shown, IgG1; also called Ab 678) VH: QVQLQESGPGLVKPSQTLSLTCTVSGDSISGGEHYWSWIRQPPGKGLEWIGSIYYSGTTYYNPSLKSRLTVSVDTFKNQFSLMLSYVTAADTAVYYCARDASPAYHDYIWGSCRYFDKWGQGTLVTVSS VL: EIVLTQSPGTLSLSPGERATLSCRASQSVSSNYLAWYQQKPGQAPRILIHGASSRATGIPDRFSGSGSGTDFTLTVSRLEPEDFAVYYCQQYGSTPYTFGQGTKVEIK",
    "pKd": 8.87
  },
  {
    "binder": "ADI-41376 (antibody, V domains shown, IgG1; also called Ab 673) VH: QVQLQESGGGVVQPGRSLRLSCAASGFTFSSYAMHWVRQAPGKGLEWVAVISFDGTANKYYADSVKGRFAISRDNSKNTLYLQMNSLRAEDTAVYYCAKDDAIYSGGWVGDAFDLWGQGTMVTVSS VL: EIVLTQSPATLSVSPGERATLSCRASQGVNSNLAWYQQKPGQAPRLLMYGASTRATGIPARFSGSGSETEFTLTISSLQSEDFAVYYCQQYNNWPRTFGQGTKVDIK",
    "pKd": 9.15
  },
  {
    "binder": "ADI-41431 (antibody, V domains shown, IgG1; also called Ab 715) VH: QVQLVQSGAEVKKPGASVRVSCTASGYRFFTYGITWVRQAPGQGLEWMGWISAYNGNTKFAQKFQGRLTMTTDAPTSTADMELRGLRSDDTAVYYCAREEGGYHGTGSNNYWGQGTLVTVSS VL: QSVLTQPPSVSAAPGQKVTISCSGSGSNVGGNDVSWYQQFPGTAPKLLIYDNSKRPSGIPDRFSGSKSGTSATLVITGLQTGDEADYYCGTWDSSLSVGVFGTGTKLTVL",
    "pKd": 9.46
  }
]
